These measurements were taken from the supplement of paper PMC9732359.

test: protein stability index of a GFP-peptide fusion (yeast GPS) (PSI 1-4); higher = more stable; sorted into four equal gates, so the index is relative within each strain; conditions: ubr1∆
A collection of sequences and their measured protein stability index
Number only, no unit.

Look over these answered cases.
VGDEFKGYVFKISGGND [RPS6A]: 3.58
AMTAAEHGLHAPAYAWS [CYT1]: 3.27
FEPASRLQGIKLLDNIQ [COR1]: 2.54
SYTFRSEKGLLSATQFT [FAS1]: 2.78
VHNTVAAGNASSLPPGE [SNF5]: 2.75

Respond only with protein stability index recorded for NSKMPTRFPPAVFYTPK [PRP8] 2.93

Respond only with protein stability index recorded for LGKKKATVDEFPLCVHL [RPL10] 2.71

Respond only with protein stability index recorded for SVYYHKGNFRTKPFENV [SNU114] 3.31

Respond only with protein stability index recorded for PVSTASYRLLPQINILQ [RPC40] 1.97

Respond only with protein stability index recorded for QSLLSLYFEIIHGVLKN [FAS2] 1.51

---

test: protein stability index of a GFP-peptide fusion (yeast GPS) (PSI 1-4); higher = more stable; sorted into four equal gates, so the index is relative within each strain; settings: pdr5∆
metric_name: protein stability index
Number only, no unit.

Respond only with protein stability index recorded for EYQVIGRRLPTESVPEP [RPL20A] 3.21

Respond only with protein stability index recorded for IGQAVQPKRNLSRYVKW [RPL8A] 2.97

Respond only with protein stability index recorded for PSSLNSDKIPYVAPTKK [SRB4] 2.59

Respond only with protein stability index recorded for NQQQPPQDILSKLYLLL [SNF11] 2.55

Respond only with protein stability index recorded for LQGEVENIAQMKPKAEK [SMC4] 3.4

Respond only with protein stability index recorded for HELPRYGITHGLTNWAA [RPL5] 2.42

Respond only with protein stability index recorded for PSVKRQKMAELEAARSE [PRP8] 3.26

Respond only with protein stability index recorded for RPKPVSPPCYIIDHIPG [SNF5] 2.64

Respond only with protein stability index recorded for YIYSHVNKVPQNVAGDK [SWP82] 2.93

Respond only with protein stability index recorded for NGGKFSKSNLIHNYDSK [RGR1] 2.71

Respond only with protein stability index recorded for LTWLSSFSVCKIRCFRY [IRR1] 1.59

Respond only with protein stability index recorded for DSAKEWPQSKNCEYEDP [RPB3] 3.13

Respond only with protein stability index recorded for NNVDNKYKSGGKFSFSP [SSN2] 2.37

Respond only with protein stability index recorded for YVNYEISTAKAWGALIT [YML103C/NUP188] 1.43

Respond only with protein stability index recorded for VEEAHDFNMKLAINAKT [RPB2] 3.03

Respond only with protein stability index recorded for SDINQNDDSSSMNATMR [YDL088C/ASM4] 2.98

---

assay: protein stability index of a GFP-peptide fusion (yeast GPS) (PSI 1-4); higher = more stable; sorted into four equal gates, so the index is relative within each strain; settings: doa10∆
metric_name: protein stability index

Look over these answered cases.
NYGMIAINPGRVAASFS [FAS1]: 1.72
NYILNFKQSNSETFLQF [CDC53]: 2.57

Please examine the following record next.
Respond only with protein stability index recorded for EPPLSYEQHIENIEPLD [PRP8] 2.44

---

assay: protein stability index of a GFP-peptide fusion (yeast GPS) (PSI 1-4); higher = more stable; sorted into four equal gates, so the index is relative within each strain; settings: pdr5∆
Give T when the value for protein stability index is at least 3. Give F when it is less.

Example results:
MSSNTSSVMSSPRVEKR [YOR098C/NUP1]: T
TSSKSSSLSAIIVFGYP [YDL088C/ASM4]: F
QNYRLDGRSFDQFRDVE [RRP45]: T
SYELRNTTTYKSRPDRP [SNF5]: T
RKKTPAGDWKYDRQLSS [FAS2]: F

Would you say RNKRAVQLPILKIIYTG [YJL039C/NUP192] shows protein stability index at minimum 3? F

Would you say EERSNNLLTPQPTNFTT [MCD1] shows protein stability index at minimum 3? T

Would you say NNIRQAICRYANVIKAL [RRP4] shows protein stability index at minimum 3? F

Would you say NEPTQKDEEETEYFENK [DSN1] shows protein stability index at minimum 3? T

Would you say TLPQPRLNKLNSNGIAM [SMD1] shows protein stability index at minimum 3? F

Would you say KERLTKEAAAVAEGKSK [RPL8A] shows protein stability index at minimum 3? F

Would you say LESISHAGTAIGIMASD [PRE9] shows protein stability index at minimum 3? F
